Biological target: T1, Bbc1, P47068
T1 sequence (P47068 1-78, looked up): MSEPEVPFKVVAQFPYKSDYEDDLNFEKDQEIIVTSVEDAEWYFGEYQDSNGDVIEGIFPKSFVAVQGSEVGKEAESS
Test: SPOT array
Conditions: median of control spots 796
endpoint label: SPOT intensity

{"binder": "AERNYAPRLPRRETS", "recorded measurement": 18}
{"binder": "IPSRPAPKPPSSASA", "recorded measurement": 121}
{"binder": "KDKSRPPRPPPKPLH", "recorded measurement": 4}
{"binder": "KRKRRLPVSEDTNTK", "recorded measurement": 77}
{"binder": "GKLKHIPRRPYEIER", "recorded measurement": 13}
{"binder": "DDEDVPPQLPTRTKS", "recorded measurement": 5}
{"binder": "RKRAPTPPAPSRSEK", "recorded measurement": 105}
{"binder": "LKPPIGRPPKFPKSP", "recorded measurement": 18}
{"binder": "NQARKPFLLPATELS", "recorded measurement": 30}
{"binder": "QLMKNLPKIPLLNDI", "recorded measurement": 0}

P: LTRRFPFLFPFDTRM
Q: SKIRPTPRKPSRMAT
R: LLIRWLILMPLVGSR
S: RHLKLVPSTPMDIPW
T: HHNRRKPLEVYFKAT
Task item: Task field, ranking: reported SPOT intensity, descending order. The response must list the labels following the requested ordering.
Reply: R, P, Q, T, S
